Taken from patent US12448394B2.

target: FLT3-D835Y mutant kinase (Homo sapiens, UniProt P36888, D835Y); construct: purchased SignalChem; test: FLT3-D835Y mutant kinase assay (AlphaScreen); format: biochemical; details: read-out: Ranking of IC50 values, FLT3-D835Y
pIC50: −log10 of the molar value.
The entries below are paired with their reported pIC50.

Qu. What value of pIC50 has been reported for the following molecule? `Cn1ncc2ccc(-c3n[nH]c4c3Cc3sc(-c5ccc(CCN6CCOCC6=O)cc5)cc3-4)cc21`
Ans. > 9.00

Qu. Same lookup for `Cn1ncc2ccc(-c3n[nH]c4c3Cc3sc(-c5ccc(C(=O)N6CCCC6)cc5)cc3-4)cc21` , please.
Ans. 8.00 to 9.00

Qu. Same lookup for `Cn1ncc2ccc(-c3n[nH]c4c3Cc3sc(-c5ccc(C(=O)N6CCCCC6)cc5)cc3-4)cc21` , please.
Ans. 8.00 to 9.00

Qu. Same lookup for `Cn1ncc2ccc(-c3n[nH]c4c3Cc3sc(-c5ccc(C(=O)N6CCOCC6)c(F)c5)cc3-4)cc21` , please.
Ans. > 9.00

Qu. Same lookup for `Cn1ncc2ccc(-c3n[nH]c4c3Cc3sc(C5CCNCC5)cc3-4)cc21` , please.
Ans. > 9.00

Qu. Same lookup for `Cc1cc(-c2cc3c(s2)Cc2c(-c4ccc5cnn(C)c5c4)n[nH]c2-3)ccn1` , please.
Ans. 8.00 to 9.00

----------
molecular target: FLT3-D835Y mutant kinase (Homo sapiens, UniProt P36888, D835Y); construct: purchased SignalChem; assay: FLT3-D835Y mutant kinase assay (AlphaScreen); assay type: biochemical; settings: read-out: Ranking of IC50 values, FLT3-D835Y
pIC50: −log10 of the molar value.
Measured attribute: pIC50

Worked examples, 4 compounds total:
molecule_smiles=C[C@@H]1CN(C(=O)c2ccc(-c3cc4c(s3)Cc3c(-c5ccc6cnn(C)c6c5)n[nH]c3-4)cc2)C[C@H](C)O1 result="8.00 to 9.00"
molecule_smiles=Cn1ncc2ccc(-c3n[nH]c4c3Cc3sc(-c5ccc(N)nc5)cc3-4)cc21 result="> 9.00"
molecule_smiles=Cn1ncc2ccc(-c3n[nH]c4c3Cc3sc(-c5ccc(C(=O)N6CCOCC6)cc5)cc3-4)cc21 result="> 9.00"
molecule_smiles=Cn1cc(-c2cc3c(s2)Cc2c(-c4ccc5cnn(C)c5c4)n[nH]c2-3)cc1C(=O)N1CCOCC1 result="> 9.00"

Qu. I'm curious: which pIC50 was measured for `Cn1ncc2ccc(-c3n[nH]c4c3Cc3sc(-c5ccc(CN6CC(F)(F)C6)cc5)cc3-4)cc21` tested on FLT3-D835Y mutant kinase (Homo sapiens, UniProt P36888, D835Y)?
Ans. 8.00 to 9.00

Qu. Same lookup for `Cn1ncc2ccc(-c3n[nH]c4c3Cc3sc(-c5cncc(C(=O)N6CCOCC6)c5)cc3-4)cc21` , please.
Ans. > 9.00

Qu. Same lookup for `Cn1ncc2ccc(-c3n[nH]c4c3Cc3sc(-c5ccc(C(=O)N6CCOCC6)nc5)cc3-4)cc21` , please.
Ans. > 9.00

----------
The entries below are paired with their reported pIC50.
system: A375 melanoma cell with BRAF V600E mutation; assay: A375 cell proliferation assay (counter screen); type: cell-based, human; details: Homo sapiens, A-375, A375 cells, 72 hours treatment, CellTiter96, read-out: anti-proliferation activity A375 BRAF V600E, IC50 ranking
pIC50: −log10 of the molar value.

Worked examples, 2 compounds total:
compound=Cn1ncc2ccc(-c3n[nH]c4c3Cc3sc(N5CCOCC5=O)cc3-4)cc21 result="5.00 to 6.00"
compound="CC1C(=O)N(C)CCN1Cc1ccc(-c2cc3c(s2)Cc2c(-c4ccc5cnn(C)c5c4)n[nH]c2-3)cc1 (stereo not drawn)" result="< 5.00"

Qu. What value of pIC50 has been reported for the following compound? `Nc1ccc(-c2cc3c(s2)Cc2c(-c4ccc5cn[nH]c5c4)n[nH]c2-3)cn1`
Ans. < 5.00

Qu. Same lookup for `C[C@@H]1CN(Cc2ccc(-c3cc4c(s3)Cc3c(-c5ccc6cnn(C)c6c5)n[nH]c3-4)cc2)C[C@H](C)O1` , please.
Ans. < 5.00

Qu. Same lookup for `Cn1ncc2ccc(-c3n[nH]c4c3Cc3sc(-c5ccnc(Cl)c5)cc3-4)cc21` , please.
Ans. < 5.00

Qu. Same lookup for `Cn1ncc2ccc(-c3n[nH]c4c3Cc3sc(-c5ccc(CN6CCOC6=O)cc5)cc3-4)cc21` , please.
Ans. < 5.00

Qu. Same lookup for `Cn1ncc2ccc(-c3n[nH]c4c3Cc3sc(-c5ccc(CN6CCSCC6)cc5)cc3-4)cc21` , please.
Ans. < 5.00

----------
The entries below are paired with their reported pIC50.
target: PDGFRα kinase (Homo sapiens, UniProt P16234)
Sequence (P16234 24-1089): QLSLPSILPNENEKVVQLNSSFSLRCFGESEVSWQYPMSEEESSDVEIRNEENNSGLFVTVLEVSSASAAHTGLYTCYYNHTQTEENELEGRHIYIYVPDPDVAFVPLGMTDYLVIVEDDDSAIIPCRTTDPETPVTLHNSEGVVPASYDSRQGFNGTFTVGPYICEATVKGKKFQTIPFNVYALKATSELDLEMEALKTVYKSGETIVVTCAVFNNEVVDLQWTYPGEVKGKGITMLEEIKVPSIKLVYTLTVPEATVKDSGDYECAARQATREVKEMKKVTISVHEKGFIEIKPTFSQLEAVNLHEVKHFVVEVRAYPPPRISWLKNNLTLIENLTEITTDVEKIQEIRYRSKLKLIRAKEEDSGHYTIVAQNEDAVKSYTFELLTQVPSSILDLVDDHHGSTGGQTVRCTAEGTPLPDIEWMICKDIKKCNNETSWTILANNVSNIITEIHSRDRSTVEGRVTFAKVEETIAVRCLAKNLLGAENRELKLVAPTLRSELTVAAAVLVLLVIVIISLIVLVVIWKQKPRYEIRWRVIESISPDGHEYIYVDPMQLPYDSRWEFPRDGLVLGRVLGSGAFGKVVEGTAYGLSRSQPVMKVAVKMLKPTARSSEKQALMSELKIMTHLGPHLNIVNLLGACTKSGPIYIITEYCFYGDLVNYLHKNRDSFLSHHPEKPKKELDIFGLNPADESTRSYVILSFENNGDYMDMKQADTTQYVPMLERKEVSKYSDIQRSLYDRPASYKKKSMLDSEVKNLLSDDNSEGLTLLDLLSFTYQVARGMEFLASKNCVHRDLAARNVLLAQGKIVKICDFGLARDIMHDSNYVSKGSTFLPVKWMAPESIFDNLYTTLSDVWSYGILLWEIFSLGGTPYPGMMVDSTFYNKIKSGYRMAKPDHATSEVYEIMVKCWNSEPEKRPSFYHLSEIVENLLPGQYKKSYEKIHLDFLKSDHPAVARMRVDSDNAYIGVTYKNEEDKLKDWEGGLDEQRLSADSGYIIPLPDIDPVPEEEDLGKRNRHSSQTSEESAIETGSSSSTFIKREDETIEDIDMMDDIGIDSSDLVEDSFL
pIC50: −log10 of the molar value.

molecule="Cn1ncc2ccc(-c3n[nH]c4c3Cc3sc(-c5ccc(C(=O)N6CCCCC6)cc5)cc3-4)cc21 [Compound 34]" measured_attribute=pIC50 result="7.00 to 7.52"
molecule="Cn1ncc2ccc(-c3n[nH]c4c3Cc3sc(-c5ccc(C(=O)N6CCOCC6)nc5)cc3-4)cc21 [Compound 23]" measured_attribute=pIC50 result="8.00 to 9.00"
molecule="CN1CCN(c2cc(-c3cc4c(s3)Cc3c(-c5ccc6cnn(C)c6c5)n[nH]c3-4)ccn2)CC1 [Compound 87]" measured_attribute=pIC50 result="8.00 to 9.00"

Qu. What value of pIC50 has been reported for the following molecule? COc1cc(-c2cc3c(s2)Cc2c(-c4ccc5cnn(C)c5c4)n[nH]c2-3)ccc1C(=O)N1CCOCC1 [Compound 43]
Ans. 8.00 to 9.00

Qu. Same lookup for Cn1ncc2ccc(-c3n[nH]c4c3Cc3sc(-c5ccc(CN6CCCC6)cc5)cc3-4)cc21 [Compound 99] , please.
Ans. 8.00 to 9.00

----------
test system: HCC827 NSCLC cell with EGFR exon 19 deletion mutation; test: HCC827 cell proliferation assay (counter screen); assay type: cell-based, human; details: Homo sapiens, HCC827 cells, 72 hours treatment, CellTiter96, read-out: anti-proliferation activity HCC827 EGFR Exon19 del, IC50 ranking
pIC50: −log10 of the molar value.
Measured attribute: pIC50

Worked examples, 4 molecules total:
molecule_smiles=Cn1ncc2ccc(-c3n[nH]c4c3Cc3sc(-c5ccc(CN6CCNCC6=O)cc5)cc3-4)cc21 result="< 5.00"
molecule_smiles=Cn1nnc2ccc(-c3n[nH]c4c3Cc3sc(-c5ccc(CN6CCOCC6)cc5)cc3-4)cc21 result="< 5.00"
molecule_smiles=Cc1ccc(-c2cc3c(s2)Cc2c(-c4ccc5cnn(C)c5c4)n[nH]c2-3)cn1 result="< 5.00"
molecule_smiles=Cn1ncc2ccc(-c3n[nH]c4c3Cc3sc(-c5ccc(CCN6CCOCC6=O)cc5)cc3-4)cc21 result="< 5.00"

Qu. What value of pIC50 has been reported for the following molecule? `C[C@@H]1COCCN1Cc1ccc(-c2cc3c(s2)Cc2c(-c4ccc5cnn(C)c5c4)n[nH]c2-3)cc1`
Ans. < 5.00

Qu. Same lookup for `Cn1ncc2ccc(-c3n[nH]c4c3Cc3sc(-c5ccc(C(=O)N6CCOCC6)cc5)cc3-4)cc21` , please.
Ans. < 5.00

Qu. Same lookup for `Cn1ncc2ccc(-c3n[nH]c4c3Cc3sc(C5=CCN(C(=O)N6CCOCC6)CC5)cc3-4)cc21` , please.
Ans. < 5.00

----------
target: FLT3-D835Y mutant kinase (Homo sapiens, UniProt P36888, D835Y); construct: purchased SignalChem; assay: FLT3-D835Y mutant kinase assay (AlphaScreen); format: biochemical; conditions: read-out: Ranking of IC50 values, FLT3-D835Y
pIC50: −log10 of the molar value.
Measured attribute: pIC50

Qu. I'm curious: which pIC50 was measured for CN1CCN(C(=O)c2ccc(-c3cc4c(s3)Cc3c(-c5ccc6cnn(C)c6c5)n[nH]c3-4)cc2)CC1 [Compound 15] tested on FLT3-D835Y mutant kinase (Homo sapiens, UniProt P36888, D835Y)?
Ans. > 9.00

----------
The entries below are paired with their reported IC50.
test system: MV4-11 human acute myeloid leukemia cell with FLT3-ITD mutation; test: MV4-11 cell proliferation assay (CellTiter 96); assay type: cell-based; conditions: Homo sapiens, MV4-11, 72 h, MV4-11 cells, 72 hours treatment, CellTiter96; read-out: anti-proliferation activity MV4-11 (FLT3-ITD), IC50 ranking

Worked examples, 2 compounds total:
compound="COc1cc(CN2CCOCC2)ccc1-c1cc2c(s1)Cc1c(-c3ccc4cnn(C)c4c3)n[nH]c1-2 [Compound 29]" measured_attribute=IC50 result="< 30 nM"
compound="Cn1ncc2ccc(-c3n[nH]c4c3Cc3sc(C#CCN5CCOCC5)cc3-4)cc21 [Compound 71]" measured_attribute=IC50 result="< 30 nM"

Qu. What value of IC50 has been reported for the following compound? CN(C)Cc1ccc(-c2cc3c(s2)Cc2c(-c4ccc5cnn(C)c5c4)n[nH]c2-3)cn1 [Compound 93]
Ans. 30 to 100 nM

Qu. Same lookup for Cn1ncc2ccc(-c3n[nH]c4c3Cc3sc(-c5cnc(N)nc5)cc3-4)cc21 [Compound 45] , please.
Ans. < 30 nM
